Target: T1, Recombinant purified human PD-1 protein, residues Leu25-Thr168, with a C-terminal 6-His tag (human, UniProt Q15116)
T1 construct: programmed cell death protein 1 (PD-1), human, residues Leu25-Thr168; monomer; the results call it wild-type or full length PD-1 against the P35-Q167 fragment; also called PD-1-His; PD-1 His-tagged monomer; source: bought: R&D Systems; not shown: His6, C-terminal, kept
T1 sequence (Q15116 25-168): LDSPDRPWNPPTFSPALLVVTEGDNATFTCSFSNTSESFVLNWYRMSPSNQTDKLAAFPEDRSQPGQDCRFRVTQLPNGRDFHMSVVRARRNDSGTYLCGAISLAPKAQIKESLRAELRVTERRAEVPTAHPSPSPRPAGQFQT
Assay: SPR; Carterra LSA, CMD-P (flat) chip; mAbs captured on goat anti-human IgG Fc in a 384-spot array; PD-1-His analyte 0.5-1000 nM, 5 min association, 20 min dissociation; HBS-ET + 0.5 mg/ml BSA; 1:1 Langmuir fit; mean of spots; apparent
Details: both partners purified
Quick reference: Kd of the listed items.
Outcome measure: Kd

>>> test_value("mAb04 (analog of retifanlimab) (antibody, V domains shown, VH; IgG4 heavy-chain constant region with stabilizing 226CPPC hinge; VL; IgG4 analog; source: HEK293 suspension cells, cotransfected, purified (Protein A)) VH: QVQLVQSGAEVKKPGASVKVSCKASGYSFTSYWMNWVRQAPGQGLEWIGVIHPSDSETWLDQKFKDRVTITVDKSTSTAYMELSSLRSEDTAVYYCAREHYGTSPFAYWGQGTLVTVSS VL: EIVLTQSPATLSLSPGERATLSCRASESVDNYGMSFMNWFQQKPGQPPKLLIHAASNQGSGVPSRFSGSGSGTDFTLTISSLEPEDFAVYFCQQSKEVPYTFGGGTKVEIK")
"0.7 nM"
>>> test_value("mAb16 (analog of dostarlimab) (antibody, V domains shown, VH; IgG4 heavy-chain constant region with stabilizing 226CPPC hinge; VL; IgG4 analog; source: HEK293 suspension cells, cotransfected, purified (Protein A)) VH: EVQLLESGGGLVQPGGSLRLSCAASGFTFSSYDMSWVRQAPGKGLEWVSTISGGGSYTYYQDSVKGRFTISRDNSKNTLYLQMNSLRAEDTAVYYCASPYYAMDYWGQGTTVTVSS VL: DIQLTQSPSFLSAYVGDRVTITCKASQDVGTAVAWYQQKPGKAPKLLIYWASTLHTGVPSRFSGSGSGTEFTLTISSLQPEDFATYYCQHYSSYPWTFGQGTKLEIK")
"1.6 nM"
>>> test_value("mAb19 (analog of sasanlimab) (antibody, V domains shown, VH; IgG4 heavy-chain constant region with stabilizing 226CPPC hinge; VL; IgG4 analog; source: HEK293 suspension cells, cotransfected, purified (Protein A)) VH: QVQLVQSGAEVKKPGASVKVSCKASGYTFTSYWINWVRQAPGQGLEWMGNIYPGSSLTNYNEKFKNRVTMTRDTSTSTVYMELSSLRSEDTAVYYCARLSTGTFAYWGQGTLVTVSS VL: DIVMTQSPDSLAVSLGERATINCKSSQSLWDSGNQKNFLTWYQQKPGQPPKLLIYWTSYRESGVPDRFSGSGSGTDFTLTISSLQAEDVAVYYCQNDYFYPHTFGGGTKVEIK")
"< 0.17 nM"
>>> test_value("mAb23 (analog of cemiplimab) (antibody, V domains shown, VH; IgG4 heavy-chain constant region with stabilizing 226CPPC hinge; VL; IgG4 analog; source: HEK293 suspension cells, cotransfected, purified (Protein A)) VH: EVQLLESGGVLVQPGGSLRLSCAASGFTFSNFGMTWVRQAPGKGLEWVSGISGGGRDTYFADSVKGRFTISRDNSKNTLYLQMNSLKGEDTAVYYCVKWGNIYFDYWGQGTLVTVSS VL: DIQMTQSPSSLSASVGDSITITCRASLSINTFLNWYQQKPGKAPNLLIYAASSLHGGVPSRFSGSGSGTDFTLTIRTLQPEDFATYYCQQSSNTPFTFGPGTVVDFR")
"1.5 nM"
